# System Under Test: human GPC3 (glypican 3), full length, on cells (human) (UniProt P51654)
# Sequence (P51654 25-554 limits assumed): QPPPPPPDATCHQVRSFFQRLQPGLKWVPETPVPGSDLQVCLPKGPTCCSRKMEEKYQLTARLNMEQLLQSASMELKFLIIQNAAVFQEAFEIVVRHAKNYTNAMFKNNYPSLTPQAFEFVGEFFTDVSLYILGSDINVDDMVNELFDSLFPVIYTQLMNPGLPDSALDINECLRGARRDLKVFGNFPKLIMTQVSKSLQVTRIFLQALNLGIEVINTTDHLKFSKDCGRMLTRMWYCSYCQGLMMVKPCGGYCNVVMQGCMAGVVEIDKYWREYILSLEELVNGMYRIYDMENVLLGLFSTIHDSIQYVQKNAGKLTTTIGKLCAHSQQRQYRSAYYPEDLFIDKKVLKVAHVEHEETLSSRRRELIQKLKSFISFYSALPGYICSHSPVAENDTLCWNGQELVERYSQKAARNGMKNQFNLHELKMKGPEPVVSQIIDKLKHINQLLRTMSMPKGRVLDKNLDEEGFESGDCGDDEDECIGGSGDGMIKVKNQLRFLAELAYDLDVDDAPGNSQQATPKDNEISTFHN
# Assay Text: cell-based or functional assay
Measurement Name: % cytolysis of Hep3B at 164h, xCELLigence, 500 CAR T cells, Donor 2 (%)
Give the value, in units of %, as a plain number.

Sample records with % cytolysis of Hep3B at 164h, xCELLigence, 500 CAR T cells, Donor 2:
binder="hmAb1-1 CAR (protein, part only; not given: hinge, transmembrane and signaling domains, part only) chain, part: QVQLVQSGAEVKKPGASVKVSCKTSGYTFTDYYIHWVRQAPGQGLEWMGEIYPGSGNTYYAQKFQGRVTMTADTSTSTAYMELSSLRSEDTAVYYCARGNDYDAWFVYWGQGTLVTVSSGSTSGSGKPGSGEGSTKGDIVMTQSPDSLAVSLGERVTMNCKSSQSLLNSGTRKNYLAWYQQKPGQPPKLLIYWASIRESGVPDRFSGSGSGTDFTLTISSVQAEDVAVYYCKQSYSLYTFGQGTKLEIK" meas_value=93.4
binder="hmAb1-2 CAR (protein, part only; not given: hinge, transmembrane and signaling domains, part only) chain, part: QVQLVQSGAEVKKPGASVKVSCKASGYTFTDYYIHWVRQAPGQGLEWMGEIYPGSGNTYYAQKFQGRVTMTRDTSTSTVYMELSSLRSEDTAVYYCARGNDYDAWFVYWGQGTLVTVSSGSTSGSGKPGSGEGSTKGDIVMTQSPDSLAVSLGERATINCKSSQSLLNSGTRKNYLAWYQQKPGQPPKLLIYWASIRESGVPDRFSGSGSGTDFTLTISSLQAEDVAVYYCKQSYSLYTFGQGTKLEIK" meas_value=91.3
binder="hmAb1-4 CAR (protein, part only; not given: hinge, transmembrane and signaling domains, part only) chain, part: QVQLVQSGAEVKKPGASVKVSCKTSGYTFTDYYIHWVRQAPGQGLEWIGEIYPGSGNTYYAQKFQGRATLTADTSTSTAYMEFSSLRSEDTAVYYCARGNDYDAWFVYWGQGTLVTVSSGSTSGSGKPGSGEGSTKGDIVMTQSPDSLAVSLGERATINCKSSQSLLNSGTRKNYLAWYQQKPGQPPKLLIYWASIRESGVPDRFSGSGSGTDFTLTISSLQAEDVAVYYCKQSYSLYTFGQGTKLEIK" meas_value=89.6
binder="hmAb1-5 CAR (protein, part only; not given: hinge, transmembrane and signaling domains, part only) chain, part: QVQLVQSGAEVKKPGASVKVSCKTSGYTFTDYYIHWVRQAPGQGLEWIGEIYPGSGNTYYAQKFQGRATLTADTSTSTAYMEFSSLRSEDTAVYYCARGNDYDAWFVYWGQGTLVTVSSGSTSGSGKPGSGEGSTKGDIVMTQSPDSLAVSLGERVTMNCKSSQSLLNSGTRKNYLAWYQQKPGQPPKLLIYWASIRESGVPDRFSGSGSGTDFTLTISSVQAEDVAVYYCKQSYSLYTFGQGTKLEIK" meas_value=95

The record that follows has no % cytolysis of Hep3B at 164h, xCELLigence, 500 CAR T cells, Donor 2 shown yet.
Recorded % cytolysis of Hep3B at 164h, xCELLigence, 500 CAR T cells, Donor 2 for hmAb1-3 CAR (protein, part only; not given: hinge, transmembrane and signaling domains, part only) chain, part: QVQLVQSGAEVKKPGASVKVSCKTSGYTFTDYYIHWVRQAPGQGLEWMGEIYPGSGNTYYAQKFQGRVTMTADTSTSTAYMELSSLRSEDTAVYYCARGNDYDAWFVYWGQGTLVTVSSGSTSGSGKPGSGEGSTKGDIVMTQSPDSLAVSLGERATINCKSSQSLLNSGTRKNYLAWYQQKPGQPPKLLIYWASIRESGVPDRFSGSGSGTDFTLTISSLQAEDVAVYYCKQSYSLYTFGQGTKLEIK , please?
89.4

Where do the numbers come from? From patent US20260242507A1.
